The measured values listed here are drawn from the supplement of paper PMC10567573.

B1: PLAGL1 (parent)
chain: TKEKKHQCDHCERCFYTRKDVRRH

Variants of: B1
ASSAY_PROTOCOL: protein stability index of a GFP-peptide fusion (GPS, HEK-293T) (PSI 1-6); higher = more stable;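 further: lentivirally expressed fusions sorted by FACS into six bins by GFP to DsRed ratio, PSI derived from sequencing read proportions per bin multiplied by bin number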
SETTINGS: c terminus: a fixed tail appended
Kindly supply the reported protein stability index values for the records listed here.
Answers are plain numbers.

Use these answered entries as a reference point.
D9A    2.67
K4L    2.9

Kindly give each listed record's protein stability index.
1. H24L
2. D9L
3. E12L
4. K5A

Result:
1: 3.17; 2: 2.98; 3: 3; 4: 3.78

Report protein stability index for every entry below.
1. C14E
2. T1V
3. H24T

Result:
1. 3.69
2. 3.5
3. 3.63

State recorded protein stability index for all listed variants.
1. R22M
2. Q7T
3. H6W
4. H10M
5. K2L
6. R18S
7. H24I

Result:
1: 3.65; 2: 2.74; 3: 2.51; 4: 3.33; 5: 2.75; 6: 3.5; 7: 3.24

Parameters: items (list). Returns: protein stability index for each item.
1. C14M
2. D9T
3. E3M

Result:
[3.52, 2.92, 3.53]
